Where do the numbers come from? From PubChem BioAssay (NCI).

- Tested on: KM12 colon
- Assay Protocol: NCI-60 one-dose screen, 48 h (100 = growth as untreated, 0 = no growth, -100 = all killed)
- Condition Details: 10 µM unless noted
This is part of a sample that, as a whole, favours compounds with a hit. Of some 83,000 tested, about 20% had one in any assay. Activity calls are given as the source filed them. How the source made its calls: active means growth percent below 10; inactive means the rest.
Below, each of the compounds is paired with its reported growth value.
Readout Name: growth

- Compound: "CCN(CC)C(=O)CCCCCn1c2ccccc2c2c3c(c4c5ccccc5[nH]c4c21)C(=O)N(O)C3=O"
  Assayed Target: "KM12 colon"
  Readout Name: "growth"
  Test Result: "30.8% (inactive)"
- Compound: "O=C(NC(Cc1cn(Cc2ccccc2)cn1)C(=O)O)OCC1c2ccccc2-c2ccccc21 (centres undefined)"
  Assayed Target: "KM12 colon"
  Readout Name: "growth"
  Test Result: "101% (inactive)"
- Compound: "Cc1ccc2oc(=O)cc(-c3sc(N4CCCCC4)nc3-c3ccccc3)c2c1"
  Assayed Target: "KM12 colon"
  Readout Name: "growth"
  Test Result: "94.8% (inactive)"
- Compound: "Nc1c(C(=O)Nc2c(Cl)cccc2Cl)sc2nc3c(cc12)CCCC3"
  Assayed Target: "KM12 colon"
  Readout Name: "growth"
  Test Result: "68.6% (inactive)"
- Compound: "COc1cc2nc(Cl)nc(Nc3cccc(C(=O)/C=C/c4ccc(F)cc4)c3)c2cc1OC"
  Assayed Target: "KM12 colon"
  Readout Name: "growth"
  Test Result: "28.4% (inactive)"
- Compound: "COc1cccc(-c2nn(-c3ccccc3)cc2-c2ccnc(NCCCNS(=O)(=O)c3ccccc3)c2)c1"
  Assayed Target: "KM12 colon"
  Readout Name: "growth"
  Test Result: "29.6% (inactive)"
- Compound: "CC(=O)O[C@H]1CC[C@]2(C)[C@H]3C(=O)C=C4[C@@H]5C[C@](C)(C(=O)N6CCCNCC6)CC[C@]5(C)CC[C@@]4(C)[C@]3(C)CC[C@H]2C1(C)C"
  Assayed Target: "KM12 colon"
  Readout Name: "growth"
  Test Result: "13.4% (inactive)"
- Compound: "CC(=O)N1N=C(c2ccc(C)cc2)CC1c1ccc(Oc2ccc(Br)cc2)cc1 (centres undefined)"
  Assayed Target: "KM12 colon"
  Readout Name: "growth"
  Test Result: "85.5% (inactive)"
- Compound: "Cc1ccc(N(CC(=O)Nc2ccc(S(=O)(=O)N3CCC(N4CCCC4)CC3)cc2)S(=O)(=O)c2ccc(Cl)cc2)cc1"
  Assayed Target: "KM12 colon"
  Readout Name: "growth"
  Test Result: "24.5% (inactive)"
